Give folding stability dG for every item shown.
B1: EEHEE_rd4_0003 (parent)
chain: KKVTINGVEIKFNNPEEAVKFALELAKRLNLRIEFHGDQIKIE

variants of: B1; assay: folding stability dG (cDNA display proteolysis); higher = more stable; details: PBS, room temperature
Answers are plain numbers, in kcal/mol.

V8M | 2.51
V19I | 2.9
K11I | 3
I42N | 1.74
K20E | 2.28
K27T | 2.52

For each entry beneath this line, provide reported folding stability dG.
1. A22F
2. I10S
3. D38L
4. K1L
5. T4N
6. E24L

(A)
1: 2.74; 2: 1.6; 3: 2.33; 4: 3.15; 5: 2.21; 6: 2.66

Hi team, please reply with folding stability dG for each item in this list.
1. A18Q
2. A22D
3. R32T
4. N6K

(A)
1.61
0.407
2.31
2.17

Could you report folding stability dG for every entry in the following list?
1. N30A
2. I33D

(A)
1: 2.23; 2: 0.681
